# target.system: Prostaglandin E synthase (Homo sapiens)
# assay.details: Inhibition of mPGES-1 in human IL-1beta-stimulated A549 cell microsomes assessed as remaining activity measuring PGE2 formation from PGH2 at 10 uM after 15 mins by RP-HPLC analysis
# condition.details: Microsome
recorded.endpoint: Activity (%)

State the measured Activity (Prostaglandin E synthase (Homo sapiens)) of COc1ccc2c(c1)c(CC(=O)NS(C)(=O)=O)c(C)n2C(=O)c1ccc(Cl)cc1 73.6

State the measured Activity (Prostaglandin E synthase (Homo sapiens)) of CC(C)Cc1ccc(C(C)C(=O)O)cc1 (stereo unspecified) 81.2

State the measured Activity (Prostaglandin E synthase (Homo sapiens)) of CCOC(=O)Cc1c(C)n(Cc2ccc(Cl)cc2)c2ccc(C#Cc3ccccc3)cc12 86.1

State the measured Activity (Prostaglandin E synthase (Homo sapiens)) of Cc1ccc(S(=O)(=O)NC(=O)C(C)c2cccc(C(=O)c3ccccc3)c2)cc1 (stereo unspecified) 76.3

State the measured Activity (Prostaglandin E synthase (Homo sapiens)) of Cc1ccc(S(=O)(=O)NC(=O)C(C)c2ccc(CC(C)C)cc2)cc1 (stereo unspecified) 78.6

State the measured Activity (Prostaglandin E synthase (Homo sapiens)) of CC(C(=O)NS(C)(=O)=O)c1cccc(C(=O)c2ccccc2)c1 (stereo unspecified) 78.6

State the measured Activity (Prostaglandin E synthase (Homo sapiens)) of COc1ccc2cc(C(C)C(=O)NS(C)(=O)=O)ccc2c1 (stereo unspecified) 92.5

State the measured Activity (Prostaglandin E synthase (Homo sapiens)) of CC(C)Cc1ccc(C(C)C(=O)NS(C)(=O)=O)cc1 (stereo unspecified) 67.9

State the measured Activity (Prostaglandin E synthase (Homo sapiens)) of CS(=O)(=O)NC(=O)Cc1cn(-c2ccccc2)nc1-c1ccc(Cl)cc1 98

State the measured Activity (Prostaglandin E synthase (Homo sapiens)) of COc1ccc2cc(C(C)C(=O)NS(=O)(=O)c3ccc(C)cc3)ccc2c1 (stereo unspecified) 72.8

State the measured Activity (Prostaglandin E synthase (Homo sapiens)) of COc1ccc2c(c1)c(C(=O)NCc1ccc(S(C)(=O)=O)cc1)c(C)n2C(=O)c1ccc(Cl)cc1 68.7
